Can you tell me cytotoxicity at 10 µM for the items I'm about to list?
- Method: Toxicity liver stage against HepG2, at 10uM
- Format: cell-based
- Parameters: test concentration 10 uM, cell line HepG2-A16-CD81EGFP
- Assay setup: human, HepG2-A16-CD81EGFP cells; read-out: INHIBITION
Number only, in %; omit the unit.

Task item: I would be grateful if you could share the reported cytotoxicity at 10 µM for Cc1noc(C)c1CN1CC2(CCN(C(=O)c3ccc[nH]3)C2)CC1=O (configuration not stated) .
Reply: 6.27

Task item: # input compound: Cc1ncccc1O[C@H]1CCN(C(=O)Cc2cccs2)CC[C@@H]1O ; wanted: its cytotoxicity at 10 µM
Reply: 5.92

Task item: Which cytotoxicity at 10 µM value is on record for CCS(=O)(=O)CCN1CCCC1c1noc(C2CC2)n1 (configuration not stated) ?
Reply: -6.33

Task item: Find the recorded cytotoxicity at 10 µM belonging to O=C(NCC1CCN(c2ncccn2)CC1)c1cnccn1 and report it.
Reply: 2.84

Task item: GET /values?readout=cytotoxicity at 10 µM&item= Cc1ccc(Cn2c(=O)[nH]c3cccnc3c2=O)cc1
Reply: 1.61

Task item: Given O=C(c1cccnc1)N1CCN(CC2CC2)c2ncccc2C1 , state its recorded cytotoxicity at 10 µM.
Reply: 2

Task item: For COc1ccc(CN2CCn3cncc3C2)cc1Cn1cncn1 , what is its reported cytotoxicity at 10 µM?
Reply: 7.55

Task item: Tell me the measured cytotoxicity at 10 µM of CN(C1CCCN(c2ccccn2)C1)S(=O)(=O)N1CCOCC1 (configuration not stated) , please.
Reply: 8.09

Task item: What value of cytotoxicity at 10 µM has been recorded for this entry: C=C(C)COc1ccccc1NC(=O)N1CCOCC(CO)C1 (configuration not stated)
Reply: -1.57

Task item: What value of measured cytotoxicity at 10 µM is listed for Cc1noc(C)c1C1CCCN1C(=O)c1cn2ccsc2n1 (configuration not stated) ?
Reply: 12.3

Task item: Look at this compound and give its reported cytotoxicity at 10 µM. Cc1ccc2c(c1)nc1n2[C@@H](CNC(=O)c2cccnc2)COC1
Reply: 5.29

Task item: Returns the measured cytotoxicity at 10 µM for the input compound. Input: CC(=O)N1CCCC(c2nccnc2-c2ccc(CO)cc2)C1 (configuration not stated)
Reply: 1.03

Task item: # lookup: cytotoxicity at 10 µM of O=C([C@H]1COC[C@H]2CN(c3ccncn3)C[C@H]21)N1CCCC1
Reply: -140

Task item: # query: cytotoxicity at 10 µM of entry CNc1nc(N2CCN(C)C(CCO)C2)nc2c1CCC2 (configuration not stated)
Reply: 2.66

Task item: Any idea what cytotoxicity at 10 µM was measured for COc1cc(CNC2CCN(c3ccccc3)C2)cc(OC)c1OC (configuration not stated) ?
Reply: 3.96

Task item: May I ask what cytotoxicity at 10 µM has been recorded for CC(C)C(=O)Nc1ccc2c(c1)ncn2CC(=O)NCCN(C)C ?
Reply: -9.1

Task item: Which cytotoxicity at 10 µM is reported for this compound? Cc1nnc(C2CCN(C(=O)c3ccc4nccnc4c3)CC2)s1
Reply: 5.05

Task item: Would you kindly share the measured cytotoxicity at 10 µM for Cc1nccc(C(=O)N2CCCN(Cc3nccn3C(C)C)CC2)n1 ?
Reply: -10.2

Task item: Give its cytotoxicity at 10 µM value. Item: CNCCN1C(=O)CC[C@H]2CN(c3cnc4ccccc4n3)CC[C@H]21
Reply: -1.62

Task item: Look up cytotoxicity at 10 µM for this compound: CCOC(=O)CCn1cnc2onc(-c3ccc(OC)cc3)c2c1=O
Reply: 18.8

Task item: Looking for the measured cytotoxicity at 10 µM of COC[C@@H]1CCCN1C(=O)c1cc(-c2ccc(OC)cc2)n[nH]1 , can you help?
Reply: 13.2

Task item: For the compound Cc1nc(C)n(C2CCCN(C(=O)c3ncoc3C(C)C)C2)n1 (configuration not stated) , what cytotoxicity at 10 µM is on record?
Reply: -17

Task item: Give its cytotoxicity at 10 µM value. Item: CCOc1ccc(C(C)Nc2ncnc3c2CCNC3)cc1OCC (configuration not stated)
Reply: -8.81

Task item: Param item = O=C(CCN1CCCC(CO)(CC2CC2)C1)NC1CCCCC1 (configuration not stated) ; retrieve measured cytotoxicity at 10 µM.
Reply: 1.91

Task item: // query cytotoxicity at 10 µM value for entry CCOc1ncccc1NC(=O)Nc1c(C)nn(C(C)C)c1C
Reply: 17.8

Task item: What value of measured cytotoxicity at 10 µM is listed for CCS(=O)(=O)NCC(=O)NC(c1cc(C)sc1C)C(C)C (configuration not stated) ?
Reply: 3.77

Task item: Consider the compound CCN1CCOC(CNCc2ccccn2)C1 (configuration not stated) and give its measured cytotoxicity at 10 µM.
Reply: -9.09

Task item: Request the reported cytotoxicity at 10 µM associated with CCc1c(C)nn(C)c1NC(=O)N1CCCOC(Cn2cccn2)C1 (configuration not stated)
Reply: -8.14

Task item: Look up cytotoxicity at 10 µM for this compound: CCN(CC1CN(Cc2ccn(C(C)C)n2)CCO1)c1cccnn1 (configuration not stated)
Reply: 5.06

Task item: I would be grateful if you could share the reported cytotoxicity at 10 µM for O=C1CO[C@H]2CN(Cc3cccc4[nH]ccc34)C[C@@H]2N1C1CCOCC1 .
Reply: -17.3

Task item: I would be grateful if you could share the reported cytotoxicity at 10 µM for COc1ccccc1C(=O)Nc1cc(CC(C)C)nn1C .
Reply: -12.5

Task item: GET /values?readout=cytotoxicity at 10 µM&item= COc1ccc(CN2C[C@H]3CN(c4ccsc4)C(=O)[C@H]3C2)cc1
Reply: 22.8

Task item: Can you share its cytotoxicity at 10 µM? I mean this compound: CC(=O)NCCCSC1CCN(c2ccccc2Cl)C1=O (configuration not stated)
Reply: -9.04

Task item: Param item = Cc1cc(-n2nc(C3CC3)nc2-c2csnn2)ccn1 ; retrieve measured cytotoxicity at 10 µM.
Reply: 6.37

Task item: Look up cytotoxicity at 10 µM: CC(C)CCOCCNC(=O)Nc1ccc(F)c(C(N)=O)c1
Reply: -11.6

Task item: Reported cytotoxicity at 10 µM for Cc1nn(C)c(Cl)c1C1CCCN1CC(=O)NC1CCCC1 (configuration not stated) : what is it?
Reply: -3.78

Task item: Sample Cc1nccn1C1CCCN(C(=O)c2ccc(N(C)C)nn2)C1 (configuration not stated) — what was its cytotoxicity at 10 µM?
Reply: -17.7

Task item: Bench note: what cytotoxicity at 10 µM did CCOc1ccc(C(=O)N2CCCC(c3nccn3C)C2)cc1OCC (configuration not stated) show?
Reply: -6.77

Task item: Bench note: what cytotoxicity at 10 µM did Cc1cnc(Nc2nccnc2C2CCN(C)CC2)s1 show?
Reply: 2.52

Task item: If you can, please state the reported cytotoxicity at 10 µM value of Cc1nnc(SCCC(=O)N(C)Cc2c(F)cccc2Cl)[nH]1 .
Reply: 1.69

Task item: Data request, read-out cytotoxicity at 10 µM, for COCCN(C)C[C@@H]1CN(C(=O)c2ccc(O)c(C)c2)C[C@@H]1CO
Reply: -11.8

Task item: So what's the measured cytotoxicity at 10 µM for this one? Cc1cc(Br)c2c(c1)C1(CC(=O)Nc3c1cnn3C(C)C)C(=O)N2 (configuration not stated)
Reply: -10.3

Task item: Param item = O=C1CCCCN1Cc1cccc(NC(=O)N2CCSCC2)c1 ; retrieve measured cytotoxicity at 10 µM.
Reply: -9.99

Task item: Quick check: cytotoxicity at 10 µM of O=C(CO)N1CCc2onc(Cn3cccn3)c2C1 ?
Reply: 0.436

Task item: Dear colleague, I am looking for the recorded cytotoxicity at 10 µM of the following compound: O=C1N(CC2CC2)C(c2c[nH]nc2-c2cccnc2)NC12CCCC2 (configuration not stated)
Reply: -2.16

Task item: Give the measured cytotoxicity at 10 µM of Cc1cccc(S(=O)(=O)N2C[C@@H]3C[C@@H](c4nnc(C)[nH]4)O[C@@H]3C2)c1 .
Reply: 9.59

Task item: Would you mind telling me what cytotoxicity at 10 µM value was observed for COCC(C)N(C)C(=O)NC1CCN(S(C)(=O)=O)CC1 (configuration not stated) ?
Reply: 5.36
